test system: A498; test: NCI tumour cell line growth inhibition, 48 h
Activity calls are given as the source filed them. No stated cut-off is given here; in the data, active = GI50 up to about 1.1 µM and inactive = higher.
Attribute: GI50
recorded endpoint: GI50

1. NC(CCc1ncc(C(=O)O)s1)C(=O)O (centres undefined) | > 100 µM (inactive)
2. CC1(C)[C@@H](Cn2nnc3c(N)ncnc32)CC[C@@]1(C)CO | > 100 µM (inactive)
3. COP(=O)(OC)/C(=C\C1=CN(C(c2ccccc2)(c2ccccc2)c2ccccc2)CN1)NC=O | 17.9 µM (inactive)
4. COc1cc(/C=N/N=C(\N)NO)cc(OC)c1OC | 46.3 µM (inactive)

* * *

system: MOLT-4; test: NCI tumour cell line growth inhibition, 48 h
Active and inactive are the calls of the source. Rule as the data show it: active = GI50 up to about 1.1 µM and inactive = higher.
recorded endpoint: GI50

1. CCCCCCCC/C=C\CCCCCCCC(=O)O | 148 µM (inactive)
2. [N-]=[N+]=NC(c1cn(C2CC(O)C(CO)O2)c(=O)[nH]c1=O)C(Br)I (configuration not stated) | > 100 µM (inactive)
3. CC1CC(c2ccc([N+](=O)[O-])cc2)=Nc2ccccc2S1 (configuration not stated) | 18.1 µM (inactive)
4. O=C(CCN1CCOCC1)c1ccc(Oc2ccc(F)cc2)cc1 | 23.7 µM (inactive)
5. CC(=O)C1(c2ccccc2)CCCN(C)CC1 (configuration not stated) | > 100 µM (inactive)
6. O=S1(=O)OCCOS(=O)(=O)C1C1c2ccccc2-c2ccccc21 | 15.6 µM (inactive)
7. COP(=O)(OC)/C(=C\C1=CN(C(c2ccccc2)(c2ccccc2)c2ccccc2)CN1)NC=O | 12.8 µM (inactive)
8. Cc1c[n+]2c3ccccc3c3ccccc3c2s1.[O-][Cl+3]([O-])([O-])[O-] | 2.03 µM (inactive)
9. COc1ccc(C2NC(N)=C(C#N)C3=C2C(C)CCC3)cc1OC (configuration not stated) | 2.75 µM (inactive)
10. O=C(O)C1Cc2[nH]c3ccccc3c2C2CCCC12 (configuration not stated) | > 100 µM (inactive)
11. COc1ccc(/N=N/N2CCCC2)cc1 | 26.9 µM (inactive)
12. C=C(C)C(=O)OC1C(C(C)CCCO)=C(CO)CC2OC(=O)C(=C)C21 (configuration not stated) | 18.4 µM (inactive)
13. CC1CN=C(Nc2ccc(F)c(Cl)c2)S1 (configuration not stated) | > 10 µM (inactive)
14. CC(C)C(=O)OCC1OC(n2c(Br)nc3c(=O)[nH]c(N)nc32)C(OC(=O)C(C)C)C1OC(=O)C(C)C (configuration not stated) | 19.3 µM (inactive)
15. Cn1c(O)c(C2=Nc3ccccc3C2=O)c2ccccc21 | > 100 µM (inactive)
16. CCOC(=O)CCC(C(=O)OCC)n1nnc2ccc(Nc3c(C)[n+]([O-])c4ccc(Cl)cc4[n+]3[O-])cc21 (configuration not stated) | 34.5 µM (inactive)
17. CN(NC1OC(CO)C(O)C(O)C1O)c1ccccc1 (configuration not stated) | > 100 µM (inactive)
18. Nc1nc(-c2ccccc2)cc(-c2ccc(F)cc2)c1-c1ccc(Cl)cc1 | 5.57 µM (inactive)
19. ClC1=C(Cc2ccccc2)Cc2ccc3c(c21)CCC3 | 19.1 µM (inactive)
20. c1cc2c(cnc3cscc32)s1 | > 100 µM (inactive)
21. CC(=O)O[C@H]1[C@@H](N2CCOCC2)C[C@H]2[C@@H]3CC=C4C[C@@H](N5CCCC5)CC[C@]4(C)[C@H]3CC[C@@]21C | > 100 µM (inactive)
22. Cc1ccc(S(=O)(=O)NCCSCCSCCNS(=O)(=O)c2ccc(C)cc2)cc1 | 34 µM (inactive)
23. CCCCCCCCCCCc1noc2c1C(=O)C(O)CC2 (configuration not stated) | 22.3 µM (inactive)
24. C1CCN(C2OC3C(COC3N3CCCCC3)OC2OC2CCO[C@@H]2N2CCCCC2)CC1 (some centres not stated) | 15.8 µM (inactive)
25. COc1ccc(C2=N/C(=C\c3ccccc3)C(=O)O2)cc1 | 13.3 µM (inactive)
26. COc1cccc(N2C(=O)CSC2c2c[nH]c3ccccc23)c1 (configuration not stated) | > 100 µM (inactive)
27. N=C1N(c2ccccc2)C(=S)/C(=N/c2ccccc2)N1c1ccccc1 | 1.29 µM (inactive)

* * *

test system: KM12; experiment: NCI tumour cell line growth inhibition, 48 h
Calls of active or inactive are those of the source. Rule as the data show it: active = GI50 up to about 1.1 µM and inactive = higher.
Labels: y (active), n (inactive)

1) CC1CC(c2ccc([N+](=O)[O-])cc2)=Nc2ccccc2S1 (stereo unspecified) | n
2) O=C1C2Cc3ccccc3CN2C(=O)N1CN1CCN(CN2C(=O)C3Cc4ccccc4CN3C2=O)CC1 (stereo unspecified) | n
3) CN(C)C(=O)OC1=CC2CCC(C1)N2C (stereo unspecified) | n
4) CO/C=C(/C(=O)OC)c1ccccc1[C@H]1C[C@@H]1c1ccc(OC)cc1 | n
5) O=C(c1ccco1)C1CC(c2ccc3ccccc3c2O)=NN1 (stereo unspecified) | n
6) CC(=O)OC1COC(n2c(=S)n(-c3ccccc3)c(=O)c3cc(Br)ccc32)C(OC(C)=O)C1OC(C)=O (stereo unspecified) | n
7) O=[N+]([O-])C(/C=C(\Cl)[N+](=O)[O-])=C(N1CCOCC1)N1CCOCC1 | n
8) c1cc2c(cnc3cscc32)s1 | n
9) CC1OC(O[C@@H]2C=C3CC[C@@H]4[C@H](CC[C@]5(C)[C@@H](c6ccc(=O)oc6)CC[C@]45O)[C@@]3(C)CC2)C(O)C(O)C1O (stereo partly specified) | y
10) COC(=O)C1=C(C)N(NC(N)=O)C2(N)N(NC(N)=O)C(C)=C(C(=O)OC)C12C#N (stereo unspecified) | n
11) Cn1cc(-c2ccc3c4ccccc4n(C)c3c2)c2ccccc21 | n
12) N=c1oc2cc(O)c(O)cc2cc1C(N)=O | n
13) COc1ccccc1N1CCN(CCCN2C(C(=O)c3ccccc3)=C(O)c3c(C)cc(C)nc3S2(=O)=O)CC1 | n
14) Cc1ccc2c(c1)Nc1ccccc1P2(=O)O | n
15) Cc1ccc(-c2cc(-c3cc(-c4ccc(C)cc4C)[nH]n3)[nH]n2)c(C)c1 | n
16) Cc1nc(N)nn1C1OCC(O)C(O)C1O (stereo unspecified) | n

* * *

tested on: EKVX; test: NCI tumour cell line growth inhibition, 48 h
Calls of active or inactive are those of the source. Cut-off read from the data, not from the text of the source: active = GI50 up to about 1.1 µM and inactive = higher.
recorded endpoint: GI50

1) Cn1c(=O)cc(NNc2ccc(Cl)c(Cl)c2)[nH]c1=O | 10 µM (inactive)
2) NNC(=O)c1ccc(OCc2nc3ccccc3[nH]2)cc1 | > 100 µM (inactive)
3) CN(NC(=O)CC(=O)NN(C)C(=S)c1ccccc1)C(=S)c1ccccc1 | 33.9 µM (inactive)
4) CCCCCCCCCCCC(=O)OCC1OC(n2cc(F)c(=O)[nH]c2=O)C(N)C(O)C1O (configuration not stated) | > 100 µM (inactive)
5) CC1(C)CCc2cc3c(cc2O1)OC(C)(C)C1c2c(ccc4c2CCC(C)(C)O4)OC31 (configuration not stated) | 64.6 µM (inactive)
6) CC1CC(=O)C2CC(CO)=CCCC2C1(C)CC/C(=C/CO)CO (configuration not stated) | > 100 µM (inactive)
7) COc1ccc(C2=C(OC(=O)N(C)C)c3cccn3-c3cc(Cl)ccc3S2)cc1 | > 10 µM (inactive)

* * *

Quick reference for GI50 among some compounds
tested on: K562; test: NCI tumour cell line growth inhibition, 48 h
Activity calls are given as the source filed them. No stated cut-off is given here; in the data, active = GI50 up to about 1.1 µM and inactive = higher.
recorded endpoint: GI50

1) COc1cccc(N2C(=O)CSC2c2c[nH]c3ccccc23)c1 (centres undefined) | > 100 µM (inactive)
2) CCC(C)NC1=NCC(C)S1 (centres undefined) | > 100 µM (inactive)
3) CC1=C(C(=O)Nc2ccc([N+](=O)[O-])cc2)C(c2cccc([N+](=O)[O-])c2)C(C(=O)Nc2ccc([N+](=O)[O-])cc2)=C(C)N1 | 9.93 µM (inactive)
4) CCCCCCCCCCCCCCN | > 100 µM (inactive)
5) COc1ccc(N2C(=O)C(C#N)=C(SC)C(C#N)C2=O)cc1 (centres undefined) | > 100 µM (inactive)
6) CC1(C)CCc2cc3c(cc2O1)OC(C)(C)C1c2c(ccc4c2CCC(C)(C)O4)OC31 (centres undefined) | > 100 µM (inactive)
7) O=C1Oc2ccccc2C(=O)/C1=C1/C=C(c2ccccc2)SS1 | 42.5 µM (inactive)
8) Oc1cccc2nc3cc(CN4CCOCC4)c(CN4CCOCC4)cc3nc12 | 34.3 µM (inactive)
9) CCOC(=O)c1c(-c2ccc(Br)cc2)ccn1C | > 10 µM (inactive)

* * *

system: OVCAR-8; assay: NCI tumour cell line growth inhibition, 48 h
Active and inactive are the calls of the source. No stated cut-off is given here; in the data, active = GI50 up to about 1.1 µM and inactive = higher.
Classes used: Y for active, N for inactive

1. CCCn1cc2c(SC)nc(SC)nc2n1 | N
2. CC(=O)C1(C(=O)C(=[N+]=[N-])S(=O)(=O)c2ccccc2)CC1 | N
3. Cc1c(-c2ccccc2)c(C#N)c2nnn(-c3ccccc3)c(=O)n12 | N
4. O=C(/C(=N/Nc1ccccc1)c1ccc([N+](=O)[O-])cc1)c1ccc([N+](=O)[O-])cc1 | N
5. COc1ccc(C)cc1C1CCC(=O)O1 (stereo not drawn) | N
6. COC(OC)c1cccc2c1C(=O)CCC1(O)c3ccccc3C1C2 (stereo not drawn) | N
7. COc1ccccc1C(=O)Nc1ccc(Cl)c(C(=O)OC(C)C)c1 | N
8. Cc1ccc(Nc2nc(=S)[nH]c3[nH]ncc23)cc1 | N
9. CCNC(=O)Nc1cccc(NC(=O)NCC)n1 | N
10. S=c1nc2c(c[nH]1)C1c3ccccc3C2c2ccccc21 | N
11. CCCCCCCCCCCCCCCC(=O)OCC1OC(OC)C2NP(=O)(N(CCCl)CCCl)OC1C2O (stereo not drawn) | N
12. COC(=O)CCc1cc(OC)c(O)c(C(Cc2ccc(OC)c(OC)c2)C(=O)OC)c1 (stereo not drawn) | N
13. Cc1ccccc1C1CC(=O)CC(c2ccccc2C)C12C(=O)NC(=O)NC2=O (stereo not drawn) | N
14. O=c1ccn(C2(CO)C=C(CO)C(O)C2O)c(=O)[nH]1 (stereo not drawn) | N
15. C[n+]1c(/C=C/c2ccc(O)c3ncccc23)[se]c2ccccc21 | N
16. NCc1cccc(O)c1O | N
17. O=C1Oc2ccccc2N/C1=C/C(=O)c1ccc([N+](=O)[O-])cc1 | N
18. Clc1ccc(-c2nn3c(-c4ccncc4)nnc3s2)cc1 | N
19. COc1cc(/C=C2\N=C(c3ccccc3)N(c3ccc(S(=O)(=O)Nc4nccs4)cc3)C2=O)ccc1O | N
20. COCOc1c(C(O[Si](C)(C)C(C)(C)C)c2cnc(Sc3ccccc3)n2C)ccc(OC)c1OC (stereo not drawn) | N
21. O=C1NC(=O)C(C(CC(=O)c2ccc(Cl)cc2)c2ccc(Cl)cc2)C(=O)N1 (stereo not drawn) | N
22. O=C1CCCn2c(nc3ccccc32)N1 | N
23. C=C1C(=O)O[C@H]2C(=O)[C@H](C)CCC[C@@](C)(O)/C=C\C[C@@]3(C)O[C@@H]3C[C@@H]12 | N
24. OC1CN2CCS[C@H]2C(O)C1O (stereo partly drawn) | N
25. CC(C)CNC(=O)Cn1c2c(c3ccccc31)CCCC2 | N
26. Cn1c2c(c3ccccc31)CC(=O)N1CCCC(C1)CC21OCCO1 (stereo not drawn) | N
27. COC(=O)C1=C(c2ccc(OC)c(OC)c2)OC(c2cc(OC)c(OC)c(OC)c2)C1 (stereo not drawn) | N
28. COc1cccc2c1C(=O)c1c(O)c3c(c(O)c1C2=O)CC(O)(C(C)=O)CC3O (stereo not drawn) | N
29. COc1cc([C@@H]2c3cc4c(cc3[C@@H](NC(=O)c3cccc(N)c3)C3COC(=O)[C@@H]32)OCO4)cc(OC)c1O (stereo partly drawn) | N
30. CC1=NN(c2nc(N)nc(CSCc3nc(N)nc(N(C)C)n3)n2)C(C)(C)C1 | N
31. Cc1noc2nnn(-c3ccc(Cl)cc3)c(=O)c12 | N
32. COc1cccc(-c2cc(=O)c3cc(N4CCCCC4)ccc3[nH]2)c1 | Y
33. [N-]=[N+]=NC(c1cn(C2CC(O)C(CO)O2)c(=O)[nH]c1=O)C(Br)I (stereo not drawn) | N
34. C=C(CC[C@@H](C(=O)O)[C@H]1[C@H](O)C[C@@]2(C)C3=CC[C@@H](C(=C)C)[C@](C)(CCC(=O)O)C3=CC[C@]12C)C(C)C [PORICOIC ACID A] | N
35. CCOC(O)(NC(=O)C(C(F)(F)F)C(F)(F)F)C(F)(F)F (stereo not drawn) | N
36. CCCCCCCCCCCC(=O)OCC(O)CO (stereo not drawn) [GLYCEROL MONOLAURATE] | N
37. CN(NC1OC(CO)C(O)C(O)C1O)c1ccccc1 (stereo not drawn) | N
38. COc1ccc2c(c1)/C(=C\c1c(Cl)[nH]c3ccccc13)C(=O)N2 | N
